test: Inhibition of dephosphorylated glycogen phosphorylase
pIC50: −log10 of the molar value.
Each entry below carries its recorded pIC50.
observable: pIC50

• O=c1cc(-c2ccc(O)c(O)c2)oc2cc(O)c(O)c(O)c12 [6-HYDROXYLUTEOLIN] = 4.94
• O=c1cc(-c2ccc(O)c(O)c2)oc2c(O)c(O)cc(O)c12 [HYPOLAETIN] = 4.80
• O=c1c(O)c(-c2ccc(O)c(O)c2)oc2cc(O)c(O)c(O)c12 [QUERCETAGETIN] = 5.01
